- target.desc: Itk (Homo sapiens, UniProt Q08881)
- Construct: Kinases are expressed as either kinase domains or full length constructs; made in house
- Sequence (Q08881 whole entry, species assumed, the tested form may be a part): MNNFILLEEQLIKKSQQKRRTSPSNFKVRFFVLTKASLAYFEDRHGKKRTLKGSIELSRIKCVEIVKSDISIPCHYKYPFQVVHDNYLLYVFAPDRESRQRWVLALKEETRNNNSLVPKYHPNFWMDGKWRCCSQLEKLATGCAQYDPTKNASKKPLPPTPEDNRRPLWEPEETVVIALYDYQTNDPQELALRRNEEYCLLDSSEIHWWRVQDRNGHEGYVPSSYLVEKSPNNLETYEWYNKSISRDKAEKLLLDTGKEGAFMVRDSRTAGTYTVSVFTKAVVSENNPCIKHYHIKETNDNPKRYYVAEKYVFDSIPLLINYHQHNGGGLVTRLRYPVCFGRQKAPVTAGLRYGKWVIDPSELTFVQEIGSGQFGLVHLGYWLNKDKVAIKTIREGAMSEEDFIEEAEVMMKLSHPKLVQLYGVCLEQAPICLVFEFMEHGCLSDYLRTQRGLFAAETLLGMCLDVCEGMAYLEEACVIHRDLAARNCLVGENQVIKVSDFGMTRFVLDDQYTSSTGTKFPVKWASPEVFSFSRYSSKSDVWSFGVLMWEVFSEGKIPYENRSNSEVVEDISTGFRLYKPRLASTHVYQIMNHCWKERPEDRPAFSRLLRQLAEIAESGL
- measurement.protocol: Kinase inhibition assay (33P transfer), Itk
- Type: biochemical
- condition: Table 3, class symbols; read-out: Itk-1
Kindly supply the reported IC50 values for the records listed here.

Previously resolved entries follow.
O=C(O)CNC(=O)c1ccc(Nc2ncnc(Nc3cc(-c4ccco4)[nH]n3)n2)cc1
0.951 to 5.71 µM
COc1ccc(Nc2ncnc(N(C)c3ccc(C(=O)O)cc3)n2)cc1OC
> 11.8 µM
Fc1cccc(CNc2nc3ccccc3n2-c2ncnc(Nc3cccc(Cn4ccnn4)c3)n2)c1
7.11 to 9.14 µM

Give me IC50 for each of these molecules, listed below.
1. COC(=O)c1cccc(Nc2ncnc(-n3c(NCc4ccc(OC)cc4)nc4ccccc43)n2)c1
2. CCN(c1ncnc(Nc2cc(OC)c(OC)c(OC)c2)n1)c1cccc2ccccc12
3. CN(c1cccc(Cl)c1)c1ncnc(Nc2ccc3c(cnn3C)c2)n1
4. COc1cc(Nc2ncnc(N(C)c3cccc(Cl)c3)n2)cc2ccccc12

stdout:
> 9.35 µM
> 10.4 µM
> 12.3 µM
8.93 to 11.5 µM

stdin: Recorded IC50 for `COC(=O)c1ccc(-c2cc(Nc3ncnc(Nc4cccc(S(=O)(=O)O)c4)n3)[nH]n2)cc1` , please?
stdout: 0.856 to 5.13 µM
